The measured values listed here are drawn from paper PMC9814838.

# Target System: Nurr1 (Homo sapiens, UniProt P43354)
# Construct: Nurr1 (uniprot entry: hNURR1–P43354, residues 360–598)
# Sequence (P43354 360-598): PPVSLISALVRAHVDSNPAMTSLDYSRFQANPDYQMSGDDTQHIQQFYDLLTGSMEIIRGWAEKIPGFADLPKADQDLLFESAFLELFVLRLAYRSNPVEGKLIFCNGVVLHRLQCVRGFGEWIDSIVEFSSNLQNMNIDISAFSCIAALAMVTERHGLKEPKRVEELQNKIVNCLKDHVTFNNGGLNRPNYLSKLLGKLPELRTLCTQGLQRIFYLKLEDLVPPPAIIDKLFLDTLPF
# Assay Info: Gal4-Nurr1 hybrid reporter gene assay in HEK293T cells
# Run Parameters: HEK293T; mean ± SD; n≥3
Reported Endpoint: IC50 (µM)
Give the number; µM is assumed, so skip it.

Quick one: IC50 for Cc1onc(-c2ccccc2)c1-c1ccc(S(N)(=O)=O)cc1 [valdecoxib] ?
13

====

# Target System: Nur77 (Homo sapiens, UniProt P22736)
# Construct: Nur77 (uniprot entry: hNUR77–P22736, residues 358–598); expressed in transfected cells; host or cells: HEK293T
# Sequence (P22736 358-598): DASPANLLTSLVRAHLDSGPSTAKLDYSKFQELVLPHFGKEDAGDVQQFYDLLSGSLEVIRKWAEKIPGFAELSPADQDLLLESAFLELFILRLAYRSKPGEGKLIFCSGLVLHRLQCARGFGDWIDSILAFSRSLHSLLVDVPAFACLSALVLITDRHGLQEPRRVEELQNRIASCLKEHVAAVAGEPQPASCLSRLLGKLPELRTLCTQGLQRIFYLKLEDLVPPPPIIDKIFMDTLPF
# Assay Info: Gal4-Nur77 hybrid reporter gene assay in HEK293T cells
# Format: cell-based
# Run Parameters: 10 µM; primary screen; n ≥ 2; ^# not significant vs VP16 control
Reported Endpoint: Nur77 activity 10μM (mean fold activation)

Record excerpt, results attached:
• Cc1cc(NC(=O)C2=C(O)c3ccccc3S(=O)(=O)N2C)no1 [isoxicam] = 0.96 fold
• CC(C(=O)O)c1cccc(C(=O)c2ccccc2)c1 (centres unmarked) [ketoprofen] = 1.04 fold
• O=C(O)COC(=O)Cc1ccccc1Nc1c(Cl)cccc1Cl [aceclofenac] = 0.84 fold
• O=C(O)Cc1ccccc1Nc1c(Cl)cccc1Cl [diclofenac] = 0.94 fold
• CS(=O)(=O)Nc1ccc([N+](=O)[O-])cc1Oc1ccccc1 [nimesulid] = 0.90 fold

Item CC(C(=O)O)c1ccc2c(c1)[nH]c1ccc(Cl)cc12 (centres unmarked) [carprofen] with Nur77 (Homo sapiens, UniProt P22736) - Nur77 activity 10μM (mean fold activation)?
1.08 fold

Subsequent entry: Cc1c(Cl)cccc1Nc1ccccc1C(=O)O [tolfenamic acid]
toxic

Subsequent entry: CC(C)Cc1ccc(C(C)C(=O)O)cc1 (centres unmarked) [ibuprofen]
0.99 fold

====

Quick reference for Nor1 activity 10μM (mean fold activation) among some molecules
# Target System: NOR1 (Homo sapiens)
# Construct: NOR1 (isoform alpha; uniprot entry: hNOR1–Q92570-1, residues 393–626); expressed in transfected cells; host or cells: HEK293T
# Sequence (Q92570 393-626): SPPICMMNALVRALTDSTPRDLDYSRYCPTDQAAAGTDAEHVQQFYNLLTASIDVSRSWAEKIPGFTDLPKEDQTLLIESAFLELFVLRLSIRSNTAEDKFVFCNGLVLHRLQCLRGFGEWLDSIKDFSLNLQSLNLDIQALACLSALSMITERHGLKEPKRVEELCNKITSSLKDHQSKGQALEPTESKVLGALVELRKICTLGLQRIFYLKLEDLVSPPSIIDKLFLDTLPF
# Assay Info: Gal4-NOR1 hybrid reporter gene assay in HEK293T cells
# Format: cell-based
# Run Parameters: 10 µM; primary screen; n ≥ 2; ^# not significant vs VP16 control
Give the number; fold is assumed, so skip it.

Item `Cc1ccc(-c2cc(C(F)(F)F)nn2-c2ccc(S(N)(=O)=O)cc2)cc1` with NOR1 (Homo sapiens) - Nor1 activity 10μM (mean fold activation)?
0.92

Subsequent entry: `Cc1ccc(Nc2c(F)cccc2Cl)c(CC(=O)O)c1`
0.86

Subsequent entry: `Cc1ccc(Cl)c(Nc2ccccc2C(=O)O)c1Cl`
3.92

Subsequent entry: CC(C(=O)O)c1ccc2c(c1)[nH]c1ccc(Cl)cc12 (centres unmarked)
1.17

Subsequent entry: `CN1C(C(=O)Nc2ccccn2)=C(O)c2ccccc2S1(=O)=O`
1.05

Subsequent entry: `Cc1onc(-c2ccccc2)c1-c1ccc(S(N)(=O)=O)cc1`
1.05

====

# Target System: Nur77 (Homo sapiens)
# Construct: Nur77 (uniprot entry: hNUR77–P22736, residues 358–598); expressed in transfected cells; host or cells: HEK293T
# Assay Info: Gal4-Nur77 hybrid reporter gene assay in HEK293T cells
# Format: cell-based
# Run Parameters: 10 µM; primary screen; n ≥ 2; ^# not significant vs VP16 control
Quick reference for Nur77 activity 10μM (mean fold activation) among some compounds
Give the number; fold is assumed, so skip it.

Record excerpt, results attached:
• NC(=O)Cc1cccc(C(=O)c2ccccc2)c1N = 0.98
• O=C(OCCOCCO)c1ccccc1Nc1cccc(C(F)(F)F)c1 [etofenamate] = 0.84
• CN1C(C(=O)Nc2ccccn2)=C(O)c2sccc2S1(=O)=O = 0.98
• CCc1cccc2c3c([nH]c12)C(CC)(CC(=O)O)OCC3 (centres unmarked) = 0.85
• CC(C(=O)O)c1cccc(Oc2ccccc2)c1 (centres unmarked) = 0.99

Quick one: Nur77 activity 10μM (mean fold activation) for CC(C(=O)O)c1ccc(-c2ccccc2)c(F)c1 (centres unmarked) ?
0.93

Subsequent entry: `O=C(O)c1ccccc1O`
1.06

Subsequent entry: `COc1ccc2cc(CCC(C)=O)ccc2c1`
1.57

Subsequent entry: `COc1ccc2c(c1)c(CC(=O)O)c(C)n2C(=O)c1ccc(Cl)cc1`
0.83

Subsequent entry: `Nc1c(CC(=O)O)cccc1C(=O)c1ccc(Br)cc1`
1.08

Subsequent entry: `CC(=O)Oc1ccccc1C(=O)O`
0.98

Subsequent entry: `Cc1ccc(-c2cc(C(F)(F)F)nn2-c2ccc(S(N)(=O)=O)cc2)cc1`
0.75

Subsequent entry: CC(C(=O)O)c1ccc2c(c1)CC(=O)c1ccccc1S2 (centres unmarked)
0.80

Subsequent entry: `COc1ccc(-c2noc(CC(=O)O)c2-c2ccc(OC)cc2)cc1`
0.98

Subsequent entry: `COc1ccc2cc([C@H](C)C(=O)O)ccc2c1`
0.99

Subsequent entry: `CCCCC1C(=O)N(c2ccccc2)N(c2ccccc2)C1=O`
0.83
